# System: CEM cells HIV-1 protection, formazan growth assay
# measurement_description: NCI AIDS Antiviral Assay
pEC50: −log10 of the molar value.

compound | pEC50
C=C1CC(COc2ccc3c(C)c(C)c(=O)oc3c2C)(c2ccccc2)OC1=O (centres undefined) | < 3.70
O=C(O[C@@H]1C(=O)N2CC[C@H]3OC(O)[C@@H]1[C@H]32)c1ccc([N+](=O)[O-])cc1 (some centres undefined) | < 3.70
Cn1cc(NC(=O)c2cc(NC(=O)CN=C(N)N)cn2C)cc1C(=O)NCCC(=N)N | < 3.70
CN(Cc1cnc2nc(N)nc(N)c2n1)c1ccc(C(=O)NC(CCC(=O)NC(CC(P(=O)(O)O)P(=O)(O)O)C(=O)O)C(=O)O)cc1 (centres undefined) | < 4.00

###

# System: CEM cells HIV-1 protection, formazan growth assay
# measurement_description: NCI AIDS Antiviral Assay
# condition_context: measured here: growth of uninfected CEM cells
// values below are reported IC50
observed_property: IC50 (µM)

molecule | observed_property | lt_gt_eq | measured_value
Cn1cc(NC(=O)c2cc(NC(=O)CN=C(N)N)cn2C)cc1C(=O)NCCC(=N)N | IC50 | > | 200
CC(C)=C=CC(C)(C)NS(=O)(=O)NC(C)(C)C=C=C(C)C | IC50 | = | 105
O=S(=O)(O)C(O)CC(O)S(=O)(=O)O (stereo not drawn) | IC50 | = | 102
CN(C)C(=O)C1(c2ccc(Cl)cc2)CCN(CCCC(=O)c2ccc(F)cc2)CC1 | IC50 | = | 69.2
Cc1ccc(S(=O)(=O)NC(CCC(=O)NN)C(=O)NN)cc1 (stereo not drawn) | IC50 | > | 200
Oc1ccccc1-c1nnc2sc3c(Cl)c4nn5c(-c6ccccc6O)nnc5sc4c(Cl)c3nn12 | IC50 | = | 36.3
O=[N+]([O-])c1ccc2[nH]nc(OCc3ccccc3Cl)c2c1 | IC50 | > | 129
NCCCC(N)(C(=O)O)C(F)F (stereo not drawn) | IC50 | = | 129
COc1cc(C=C2C(=O)OC(C)(C)OC2=O)cc(OC)c1OC | IC50 | = | 83.2
N#Cc1cccc(C(Br)S(=O)(=O)c2ccccc2)c1 (stereo not drawn) | IC50 | = | 72.4
COc1ccc2nc3ccc(OC)cc3c(SCc3ccc([N+](=O)[O-])cc3)c2c1 | IC50 | > | 200
CCOC(=O)/C(=C\c1cccc(OC)c1)[Se]c1ccccc1 | IC50 | = | 7.59
O=[N+]([O-])c1ccc2oc(=Nc3ccccc3)c(Nc3ccccc3)nc2c1 | IC50 | = | 166
C#Cc1cccc(N2C(=O)c3c(c(-c4ccccc4)c(-c4ccc(Cc5ccc(-c6c(-c7ccccc7)c7c(c(-c8ccccc8)c6-c6ccccc6)C(=O)N(c6cccc(C#C)c6)C7=O)cc5)cc4)c(-c4ccccc4)c3-c3ccccc3)C2=O)c1 | IC50 | > | 23.4
Cc1csc2c1-n1cccc1C2=O | IC50 | = | 129
CC(=O)OCC(OC(C)=O)C(Cl)CCl (stereo not drawn) | IC50 | > | 200
O=c1[nH]nc(-c2ccccc2)n1/N=C/c1cccc([N+](=O)[O-])c1 | IC50 | = | 24.5
COc1ccc(CC(CC(=O)O)NC(C)=O)cc1 (stereo not drawn) | IC50 | > | 1000
Cc1ccc(C2=Nc3ccccc3SC(c3cccc([N+](=O)[O-])c3)C2)cc1 (stereo not drawn) | IC50 | = | 6.17
C[CH2][Sn]([CH2]C)([O]C(=O)c1c(F)cccc1F)[O][Sn]([CH2]C)([CH2]C)[O]C(=O)c1c(F)cccc1F | IC50 | = | 4.79
c1cc(-c2ncc3ccncc3n2)ccn1 | IC50 | > | 64.6
CCN(CC)c1c(C(=O)/C=C/c2ccccc2)c(-c2ccccc2)nn(C)c1=O | IC50 | = | 9.12
O=C1NC(N2CCCC(CO)C2)=N/C1=C\c1cccs1 (stereo not drawn) | IC50 | > | 200
CC(=O)Nc1ccc(/C=C2\SC(=S)N(/C=C(/C#N)S(=O)(=O)c3ccc(C)cc3)C2=O)cc1 | IC50 | = | 74.1
CSc1c(S(C)=O)c2ccccc2n1C (stereo not drawn) | IC50 | > | 200
COc1cc(CC2Cc3cccc(=O)c(O)c3C(=O)O2)cc(OC)c1OC (stereo not drawn) | IC50 | = | 17.4
Cn1c(=O)c(C(c2ccc([N+](=O)[O-])cc2)c2c(O)c3ccccc3n(C)c2=O)cc2ccccc21 (stereo not drawn) | IC50 | > | 4.27
Cc1cc(NS(=O)(=O)c2ccc(Nc3c4ccccc4nc4c(C(=O)O)cccc34)cc2)no1 | IC50 | = | 178
Cn1c(=O)c2nc3sc4ccccc4c(=N)n3c2n(C)c1=O | IC50 | > | 41.7
CCC1(C)CC(=O)NC1=O (stereo not drawn) | IC50 | > | 37.2
CN(C)c1ccc(/C=C(\NC(=O)c2ccccc2)C(=O)Nc2ccccc2C(=O)N/N=C/c2ccc(N(C)C)cc2)cc1 | IC50 | > | 25.1
COc1cc2c(c(OC)c1OC)CCC1(C)C(=O)NN=C21 (stereo not drawn) | IC50 | = | 275
O=C(CSc1nnc(-c2ccc(N=Cc3ccc(Cl)cc3)cc2)o1)Nc1ccccc1Cl | IC50 | > | 269
O=c1c2ccccc2[nH]c(=S)n1-c1cccc(C(F)(F)F)c1 | IC50 | > | 200
O=S(=O)(c1ccccc1)S(=O)(=O)c1ccccc1 | IC50 | > | 47.9
CCSCCCCCCCCCCC(=O)O | IC50 | = | 63.1
COC(=O)C1c2c(c3ccccc3n2C(=O)OC)CCN2CCC1C(S(=O)(=O)c1ccccc1)C2=O (stereo not drawn) | IC50 | = | 447
CCOC(=O)c1cn(C)c(=S)n2c1nc1ccccc12 | IC50 | > | 200
COP(=O)(OC)C1=c2c(C)noc2=C2C=COC2C1=O (stereo not drawn) | IC50 | > | 200
Cn1c2cc(Cl)ccc2c2ccc3c(c21)C(=O)C=CC3=O | IC50 | = | 4.17
CC(=O)OCC1OC(n2cc(C)c(-n3cncn3)nc2=O)CC1N=[N+]=[N-] (stereo not drawn) | IC50 | = | 11.5
CC(=O)OCC1OC(OCCCCCCO)C(OC(C)=O)C(OC(C)=O)C1OC(C)=O (stereo not drawn) | IC50 | > | 200
NNc1[nH]c(=S)[nH]c1C(N)=O | IC50 | > | 200
